# target.entity: FGFR2-WT (Homo sapiens, UniProt P21802)
# Sequence (P21802 430-767 limits assumed): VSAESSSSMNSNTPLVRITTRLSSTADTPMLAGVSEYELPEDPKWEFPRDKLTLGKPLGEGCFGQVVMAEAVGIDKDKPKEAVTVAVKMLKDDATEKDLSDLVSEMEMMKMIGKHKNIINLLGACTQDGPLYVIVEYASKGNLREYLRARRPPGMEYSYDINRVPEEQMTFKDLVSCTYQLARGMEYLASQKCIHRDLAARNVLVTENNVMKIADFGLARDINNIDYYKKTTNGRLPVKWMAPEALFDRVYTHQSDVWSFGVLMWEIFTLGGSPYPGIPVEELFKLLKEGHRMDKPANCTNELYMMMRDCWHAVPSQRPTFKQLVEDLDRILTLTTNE
# assay.notes: Phosphorylated FGFR2-WT (pFGFR2-WT) cell assay, KATOIII cells
# measurement.conditions: 1 hour incubation, phospho FGFR2 HTRF
pIC50: −log10 of the molar value.
parameter.measured: pIC50

[P] Cc1c(-c2cc(O[C@H](C)c3ccc(F)cn3)c3c(C#N)cnn3c2)cnn1[C@H]1CC[C@H](O)CC1
[Q] Cc1c(-c2cc(OC(C)c3ccc(F)cn3)c3c(C#N)cnn3c2)cnn1[C@H]1CC[C@@H](O)CC1 (some centres unmarked)
[R] Cc1nn([C@H]2CCCNC2)c(C)c1-c1cc(O[C@H](C)c2ncccc2F)c2c(C#N)cnn2c1
input: Order the 3 listed items from lowest to highest according to pIC50. // rank by listing labels in the order requested
output: R, Q, P

----------
# target.entity: FGFR2-WT (Homo sapiens, UniProt P21802)
# assay.notes: Phosphorylated FGFR2-WT (pFGFR2-WT) cell assay, KATOIII cells
# measurement.conditions: 1 hour incubation, phospho FGFR2 HTRF
pIC50: −log10 of the molar value.
parameter.measured: pIC50

>  <given.smiles>
Cc1c(-c2cc(O[C@H](C)c3ccc(F)cn3)c3c(C#N)cnn3c2)cnn1[C@H]1CCCNC1

>  <target.entity>
FGFR2-WT (Homo sapiens, UniProt P21802)

>  <pIC50>
8.33

$$$$
>  <given.smiles>
Cc1c(-c2cc(O[C@H](C)c3ccc(F)cn3)c3c(C#N)cnn3c2)cnn1[C@H]1CC[C@@H](O)CC1

>  <target.entity>
FGFR2-WT (Homo sapiens, UniProt P21802)

>  <pIC50>
8.52

$$$$
>  <given.smiles>
C[C@@H](Oc1cc(-c2ccc(N3CC[C@H](O)[C@@H](O)C3)nc2)cn2ncc(C#N)c12)c1ccc(F)cn1

>  <target.entity>
FGFR2-WT (Homo sapiens, UniProt P21802)

>  <pIC50>
8.48

$$$$

[A] C[C@@H](Oc1cc(-c2cnn([C@H]3CCCNC3)c2N)cn2ncc(C#N)c12)c1ccc(F)cn1
[B] Cc1nn(C[C@H](O)CO)cc1-c1cc(O[C@H](C)c2ccc(F)cn2)c2c(C#N)cnn2c1
input: Between A and B , which one has the lower reported pIC50 value? Mark your selection by writing its label.
output: B
(B: 7.77, A: 8.40)
